These data points were gathered from PubChem BioAssay (NCI).

Test system: HT29 colon
Test: NCI tumour cell line growth inhibition, 48 h
TEST READOUT: GI50

Examples from the recorded data:
O=C1C[C@@H]2/C(=C(O)\C=C\c3ccccc3)C(=O)C=C[C@@H]2O1 ... 0.844 µM
O=C1C(Cl)=C(NCc2ccco2)C(=O)c2ccccc21 ... 6.14 µM
CCCCCCCCCCCCC(O)[C@H]1CC[C@H](C(O)CCCCCC(=O)CCCCC2CC(C(C)=O)C(=O)O2)O1 (stereo partly drawn) ... 2.96 µM
CC(C)=CC1=C2C3=C(C(=O)C4(O)Oc5c(C)c6c7c(c5OC24C)[C@@H](C)CC[C@@H]7[C@@H](C)C[C@H]6C=C(C)C)C(C)CCC3C(C)C1 (stereo partly drawn) ... > 100 µM
C=C1C(=O)O[C@H]2[C@H]1CC/C(Cn1cc(-c3ccccc3C(F)(F)F)nn1)=C\CC[C@@]1(C)O[C@@H]21 ... 1.79 µM

Can you share its GI50? I mean this compound: Cc1cc(N2CCOCC2)cc2[nH]c(-c3c(NC[C@@H](O)c4cccc(Cl)c4)cc[nH]c3=O)nc12
0.0672 µM

Would you kindly share the measured GI50 for CCNC(=O)O[C@H]1CN[C@H](C#Cc2cc3ncnc(Nc4ccc(OCc5cccc(F)c5)c(Cl)c4)c3s2)C1 ?
9.47 µM

Entry Cn1cc(-c2ccc(-c3ccc(C4=NC5(CC5)C(=O)N4C[C@@H]4CCN(C(=O)C5CC5)C4)cc3)cc2)cn1 has what GI50?
12.5 µM

---

Test system: MDA-MB-435
Assay: NCI tumour cell line growth inhibition, 48 h
*1 amine or outer side, *2 acyl side, *3 side chain or, on linkers, in order; H or OH if unused. Where a SMILES comes first, the peptide text is derived from it. [ ]: non-standard residue; d: D form. X32 = C[C@H](N[*:1])C(=O)C(C)(C)C(=O)[*:2]; Hmpa(2S,3S) = CC[C@H](C)[C@H](O)C(=O)O; NMeY = CN[C@@H](Cc1ccc(O)cc1)C(=O)O; NMeL = CN[C@@H](CC(C)C)C(=O)O; NMeV = CN[C@H](C(=O)O)C(C)C; βAla = NCCC(=O)O
Documented TGI across a set of molecules

For orientation, consider the following solved cases.
N[C@H]1CCCC[C@@H]1N1C(=O)c2ccccc2C1(O)c1ccc(Cl)cc1 (stereo partly drawn) ... 21.1 µM
CC[C@H](C)[C@@H]1OC(=O)CCNC(=O)[C@@H](C)NC(=O)C(C)(C)C(=O)[C@H](C)NC(=O)[C@H](Cc2ccc(OC)cc2)N(C)C(=O)[C@H](C(C)C)N(C)C(=O)CNC(=O)[C@H](CC(C)C)N(C)C(=O)CNC1=O (cyclo(G[NMeL]G[NMeV][NMeY](Me)[X32][dA][βAla][Hmpa(2S,3S)])) ... > 42.7 µM
COI1NC(=O)c2ccccc21 ... > 100 µM
CCOC(=O)CCC(NC(=O)c1ccc(OCc2ccc3nc(-c4ccccc4)c(Cl)nc3c2)cc1)C(=O)OCC (stereo not drawn) ... > 31.6 µM
O=C1CSC(c2cccc([N+](=O)[O-])c2)N1c1ccc(-n2c(-c3ccccc3)nc3ccccc3c2=O)cc1 (stereo not drawn) ... > 100 µM
CC1(C)OCC=CCO1 ... > 100 µM
Cc1ccc(O)c(NC(=O)c2ccc(CNc3ccnc(C(F)(F)F)c3)cc2)c1 ... 22.1 µM

So what does the record say about TGI for CCCC(=O)Nc1cc(/C=C/C(=O)N2CC(CCl)c3c2cc(O)c2[nH]cc(C)c32)n(C)c1 (stereo not drawn) ?
< 2.5e-05 µM

---

Reported TGI values for a set of molecules
Tested on: HOP-92 NSCLC
Test: NCI tumour cell line growth inhibition, 48 h
Dear colleague, please return just the value in µM, with no unit written.

Take a look at these entries with their results.
CCCCCCCCCCCCCCCCCCN(C)CC(COP(=O)([O-])OCC[N+](C)(C)C)OC (stereo not given) ... 35.6
O=[N+]([O-])c1ccc(N/N=C/c2ccc(OCCCCCCCCCCCO)cc2)c([N+](=O)[O-])c1 ... 14.6

--- query ---
Need TGI, item Cn1cc2ccccc2c1-c1nc(F)nc(OCC(=O)[C@H]2CCC3[C@@H]4CCC5=CC(=O)CC[C@]5(C)C4[C@@H](O)C[C@@]32C)n1 (stereo not given in full)
36.6

---

Reported TGI values for a set of compounds
System: MCF7 breast
Test: NCI tumour cell line growth inhibition, 48 h

OCCNCNc1nc(NCNCCO)nc(N(CNCCO)CNCCO)n1 ... > 78.9 µM
Cc1cn(CC2=NCC(C)N2)c(=O)[nH]c1=O (stereo unspecified) ... > 100 µM
CCOC(=O)C(SCCO)C(C(=O)OCC)n1ccc(=O)[nH]c1=O (stereo unspecified) ... > 62.1 µM
OCC#Cc1ccccc1C#CCCCCCC#Cc1ccccc1C#CCO ... 40.2 µM
COC(=O)CC[C@H](Cc1ccccc1)NC(=O)c1csc([C@@H](C[C@H](C(C)C)N(C)C(=O)[C@@H](NC(=O)[C@H]2CCCCN2C)C(C)C)OC(C)=O)n1 ... > 25 µM

For the compound shown here, CC(C)/C(Cl)=N\OC(=O)Nc1cccc(Cl)c1 , give the reported TGI.
32 µM

If you can, please state the reported TGI value of Cn1c2ccccc2c(=O)c2cccc(C(=O)NC(CCC(N)=O)C(=O)O)c21 (stereo unspecified) .
> 100 µM

Consider the compound COC(=O)C(CCSC)NC(=O)Cc1ccc(C(=O)c2ccccc2)cc1 (stereo unspecified) and give its measured TGI.
> 100 µM

Return reported TGI; argument: CO/N=C(\C)CCC#Cc1ccccc1C(=O)OC
> 10 µM

Fill blank: measured TGI of the compound NC(N)=Nc1ccc(CC(N)C(=O)O)cc1 (stereo unspecified) is ____.
> 12.5 µM

Item N#C/C(N)=C(\C#N)NC(=O)C(=O)N/C(C#N)=C(\N)C#N has what recorded TGI?
> 100 µM

Quick check: TGI of N#Cc1cnc(N)nc1NCC1(CO)CC(CCc2ccccc2)C1 (stereo unspecified) ?
> 100 µM

Query (compound): Oc1ccc(-c2nc3ccc(Cl)cc3s2)cc1 ; field requested: TGI
22.6 µM

---

System: OVCAR-8 ovarian
Assay: NCI tumour cell line growth inhibition, 48 h; in the data active = GI50 below about 0.43 µM; inactive = the rest
Lab note: assign the record to one of 1 (active), 0 (inactive)

Worked examples, 2 compounds total:
NCCCNCCCCNC(=O)C(O)NC(=O)CCCCCCN=C(N)N (stereo not given) ... 0
COc1cc2c(cc1OCCCC(=O)Nc1ccc3ccc4cccc5ccc1c3c45)N=C[C@@H]1CCCN1C2=O ... 1

What is the recorded call for this compound in the test? Cc1cc(N2CCOCC2)cc2[nH]c(-c3c(NC[C@@H](O)c4cccc(Cl)c4)cc[nH]c3=O)nc12
0

Hi team, can someone confirm the assay call for O=C1C(Cl)=C(NCc2ccco2)C(=O)c2ccccc21 ?
0

So what was the verdict on CCCCCCCc1cc2c3c(nc4ccccc42)C(=O)c2cccnc2-c3n1 in this test?
0

For this compound, state the assay outcome: C=C1CC2(OC1=O)C(=O)Nc1ccccc12 (stereo not given)
0

# outcome recorded in this test, key = C[N+]1=C(/C=C\C=C\c2ccccc2)C(C)(C)c2ccccc21
0

Hello, I am checking results. What call was entered for COc1cc(C2CC(c3ccc(Nc4ccnc5cc(Cl)ccc45)cc3)=NN2c2ccc(Cl)cc2)cc(OC)c1OC (stereo not given) ?
0

I would be grateful if you could indicate the recorded call for O=C1c2ccccc2-c2c1c1ccccc1c(=O)n2CCCn1ccnc1 .
0

Kindly provide the recorded test outcome for the following compound: COC(=O)CC[C@H](Cc1ccccc1)NC(=O)c1csc([C@@H](C[C@H](C(C)C)N(C)C(=O)[C@@H](NC(=O)[C@H]2CCCCN2C)C(C)C)OC(C)=O)n1
1

---

Test system: DMS 273 small cell lung
Test: NCI tumour cell line growth inhibition, 48 h
TEST READOUT: TGI

Take a look at these entries with their results.
O=C(O)CCc1nn2c(nc1=O)sc1ccc3ccccc3c12 ... > 100 µM
CCN1CCC(O)(c2ccc(Cl)cc2)C(C(=O)c2ccc(Cl)cc2)C1 (configuration not stated) ... > 100 µM
O=C1C(=Cc2c(O)cc(O)cc2O)C(=O)c2ccccc21 ... > 100 µM
Clc1ccc(C(n2cc(Br)cn2)n2cc(Br)cn2)cc1 ... 36.8 µM
CCCSS[C@H]1NC(=O)[C@H]1NC(=O)COc1ccccc1 ... 31.2 µM
CN1C(=O)C2C(C1=O)C1(O)c3ccccc3C2(N)c2ccccc21 (configuration not stated) ... > 100 µM
COc1ccc(C2ON(c3cccc(C)n3)CC=C2C)cc1 (configuration not stated) ... > 100 µM
CCN(CC)c1ccc(N=Nc2ccc(-c3nc4ccc[n+](C)c4o3)cc2)cc1 ... 23.3 µM

Shifting focus to the compound that follows.
What value of TGI on DMS 273 small cell lung does COC(=O)Nc1nc2ccc(Br)cc2[nH]1 have?
> 100 µM
